Molecular target: Rhesus monkey Claudine18.2 (Rhesus monkey) (UniProt F6YQY3)
Experiment: FACS on CHOK1-rh18.2 cells
Catalogue of FACS MFI readings, one per entry.
Reply briefly: the number, and no unit.

>>> observed_value("Ab07 (antibody, V domains shown) VH: EVQLQQSGPELVKPGASVKISCKASGYSFTDYFMNWVKQSHGKGLEWIGRINPYNGDTFYNQKFKGKATLTVDKSSSTAHMELLSLTSEDFAVYYCALYDGYWGAFVYWGQGTLVTVSA VL: DIQMTQSPASLSVFVGETVTITCRASENIYSNLAWYQQKQGKSPQLLVYAATNLADGVPSRFSGSGSGTQYSLKINSLQSEDFGSYYCQHFWGTPLTFGAGTKLELK")
9040

Please look at the following binder next.
Look up and state reported FACS MFI for Ab13 (antibody, V domains shown) VH: EVRLVESGGGLVKPGGSLKLSCAGSGFTFSSYTMSWVRQTPEKRLEWVATITIGVNIYYLDSVKGRFTISRDNAKNTLYLQMNSLRSEDTALYYCTRLGQTQRNAMDYWGQGTSVTVSS VL: DIVMTQSPTSLSVSAGEKVTMTCKSSQSLLNSGNQKNYLAWYQEKPGQPPKLLIYGASTRESGVPDRFTGSGSGTDFTLTISSVQAEDLAVYYCQNNHFYPLTFGAGTKLELK 5630

Cited source: patent US20230095569A1
